# assay system: BRD2-BD1 (Homo sapiens (Human))
# Sequence (P25440 74-180): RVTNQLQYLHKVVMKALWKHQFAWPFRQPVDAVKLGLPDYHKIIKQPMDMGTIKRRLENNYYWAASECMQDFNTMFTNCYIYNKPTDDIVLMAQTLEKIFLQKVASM
# assay text: competitive TR-FRET assay, BET-BD with acetylated peptide ligand
# Format: binding
# experimental context: BRD2-BD1; Table 11 additional modifications; read-out: 2.1 EC50
# Description: Inhibitor potency was determined using a competitive TR-FRET assay as detailed herein, measuring interaction of the respective BET-BD with an acetylated peptide ligand (Table 2).
I'd appreciate it if you could supply pEC50 values for the items below.
Answers are plain numbers, as −log10 of the molar value.

These recorded examples may help you get a feel for the data.
>  <molecule>
CC(=O)Nc1cccc(-c2ccc3c(c2)[C@H](Nc2ccc(C#N)cc2Cl)C[C@H](C)N3C(C)=O)c1 [compound 196]

>  <pEC50>
5.66

$$$$
>  <molecule>
CC(=O)Nc1cccc(-c2ccc3c(c2)[C@H](Nc2ccccc2Cl)C[C@H](C)N3C(C)=O)c1 [compound 197]

>  <pEC50>
5.46

$$$$
>  <molecule>
CC(=O)Nc1cccc(-c2ccc3c(c2)[C@H](Nc2ccc(C#N)cc2)C[C@H](C)N3C(C)=O)c1 [compound 29]

>  <pEC50>
6.34

$$$$
>  <molecule>
CC(=O)N1c2ccc(-c3ccn(C)n3)cc2[C@H](Nc2ccccc2OC(F)(F)F)C[C@@H]1C [compound 172]

>  <pEC50>
5.09

$$$$
>  <molecule>
CC(=O)Nc1cccc(-c2ccc3c(c2)[C@H](Nc2ccc(N(C)C)cc2)C[C@H](C)N3C(C)=O)c1 [compound 118]

>  <pEC50>
5.44

$$$$
>  <molecule>
CC(=O)Nc1cccc(-c2ccc3c(c2)[C@H](Nc2ccc4ncccc4c2)C[C@H](C)N3C(C)=O)c1 [compound 13]

>  <pEC50>
6.06

$$$$

For each of the items listed, what is its pEC50?
1. CCC(=O)Nc1cccc(-c2ccc3c(c2)[C@H](NC(=O)OC(C)C)C[C@H](C)N3C(C)=O)c1 [compound 115]
2. COC(=O)c1ccc(N[C@@H]2C[C@H](C)N(C(C)=O)c3ccc(-c4cccc(NCCC(C)C)c4)cc32)cc1 [compound 142]

1: 6.43; 2: 5.60

Answer for every listed entry: what is its pEC50? The entries follow.
1. CC(=O)N1c2ccc(-c3cccc(NCC4CC4)c3)cc2[C@H](NC(=O)OC(C)C)C[C@@H]1C [compound 108]
2. CC(=O)N1c2ccc(-c3cccc(NCCC(C)(C)C)c3)cc2[C@H](NC(=O)OC(C)C)C[C@@H]1C [compound 106]
3. COC(=O)c1ccc(N[C@@H]2C[C@H](C)N(C(C)=O)c3ccc(-c4ccnn4C)cc32)cc1 [compound 144]
4. CC(=O)Nc1cccc(-c2ccc3c(c2)[C@H](NC(=O)CCc2ccccc2)C[C@H](C)N3C(C)=O)c1 [compound 74]
5. CC(=O)N1c2ccc(-c3cccc(NC(=O)OC(C)(C)C)c3)cc2[C@H](Nc2ccc(Cl)cc2)C[C@@H]1C [compound 134]
6. CC(=O)N1c2ccc(-c3cccc(NCC4CCOC4)c3)cc2[C@H](NC(=O)OC(C)C)C[C@@H]1C (stereo partly drawn) [compound 105]

5.60
5.41
5.42
4.96
4.68
6.40

* * *

# assay system: BRD4-BD1 (Homo sapiens (Human))
# assay text: competitive TR-FRET assay, BET-BD with acetylated peptide ligand
# Format: binding
# experimental context: BRD4-BD1; Table 11 additional modifications; read-out: 4.1 EC50
test readout: log10 of EC50 (log10 of the value in µM)
In our notation, the value equals log10 of EC50 in µM.

>  <molecule>
CC(=O)Nc1cccc(-c2ccc3c(c2)[C@H](NC(=O)c2ccccc2)C[C@H](C)N3C(C)=O)c1 [compound 62]

>  <log10 of EC50>
1.89

$$$$
>  <molecule>
CC(=O)N1c2ccc(-c3cccc(NC(=O)C(C)C)c3)cc2[C@H](NC(=O)OC(C)C)C[C@@H]1C [compound 98]

>  <log10 of EC50>
-0.05

$$$$
>  <molecule>
CC(=O)Nc1cccc(-c2ccc3c(c2)[C@H](NC2CCCC2)C[C@H](C)N3C(C)=O)c1 [compound 38]

>  <log10 of EC50>
0.83

$$$$
>  <molecule>
CC(=O)N1c2ccc(-c3cccc(NC(=O)c4ccc(C)cc4)c3)cc2[C@H](NC(=O)OC(C)C)C[C@@H]1C [compound 95]

>  <log10 of EC50>
0.30

$$$$

Parameter requested: log10 of EC50. Apply to each item below.
1. CC(=O)N1c2ccc(-c3cccc(NS(C)(=O)=O)c3)cc2[C@H](NC(=O)OC(C)C)C[C@@H]1C [compound 93]
2. CCC(=O)Nc1cccc(-c2ccc3c(c2)[C@H](NC(=O)OC(C)C)C[C@H](C)N3C(C)=O)c1 [compound 115]
3. COC(=O)c1ccccc1N[C@@H]1C[C@H](C)N(C(C)=O)c2ccc(-c3cccc(NC(C)=O)c3)cc21 [compound 15]
4. CC(=O)N1c2ccc(-c3ccc(N(C)C)cc3)cc2[C@H](NC(=O)OC(C)C)C[C@@H]1C [compound 57]
5. CC(=O)Nc1cccc(-c2ccc3c(c2)[C@H](Nc2cncnc2)C[C@H](C)N3C(C)=O)c1 [compound 16]
6. CC(=O)Nc1cccc(-c2ccc3c(c2)[C@H](Nc2ccc(OC(F)(F)F)cc2)C[C@H](C)N3C(C)=O)c1 [compound 132]
7. CC(=O)N1c2ccc(-c3cccc(NCCC(C)(C)C)c3)cc2[C@H](NC(=O)OC(C)C)C[C@@H]1C [compound 106]

1: -0.42; 2: -0.80; 3: 0.85; 4: 0.46; 5: 1.11; 6: 1.23; 7: 0.52

Please give log10 of EC50, item by item, for the list that follows.
1. CC(=O)N1c2ccc(-c3cccc(NCC(C)C)c3)cc2[C@H](NC(=O)OC(C)C)C[C@@H]1C [compound 96]
2. CC(=O)N1c2ccc(-c3cccc(NC(=O)C4CCC(C)CC4)c3)cc2[C@H](NC(=O)OC(C)C)C[C@@H]1C (some centres unmarked) [compound 102]
3. COc1ccc(N[C@@H]2C[C@H](C)N(C(C)=O)c3ccc(-c4cccc(NC(C)=O)c4)cc32)cc1 [compound 18]
4. COc1cccc(N[C@@H]2C[C@H](C)N(C(C)=O)c3ccc(-c4cccc(NC(C)=O)c4)cc32)c1 [compound 21]
5. COc1ccc(-c2ccc3c(c2)[C@H](NC(=O)OC(C)C)C[C@H](C)N3C(C)=O)cc1 [compound 59]
6. CC(=O)Nc1cccc(-c2ccc3c(c2)[C@H](NC(=O)Cc2ccccc2)C[C@H](C)N3C(C)=O)c1 [compound 64]
7. CC(=O)Nc1cccc(-c2ccc3c(c2)[C@H](Nc2ccc(-c4nnc(C)o4)cc2)C[C@H](C)N3C(C)=O)c1 [compound 35]

1: 0.28; 2: 0.58; 3: 0.36; 4: 0.18; 5: 0.54; 6: 0.86; 7: 0.40

Here are 3 molecules. What values of log10 of EC50 were reported for them?
1. CC(=O)N1c2ccc(-c3c[nH]c4ccccc34)cc2[C@H](NC(=O)OC(C)C)C[C@@H]1C [compound 91]
2. CC(=O)N1c2ccc(C3=CCCO3)cc2[C@H](NC(=O)OC(C)C)C[C@@H]1C [compound 85]
3. CC(=O)N1c2ccc(-c3cccc(-n4cccn4)c3)cc2[C@H](Nc2ccc(Cl)cc2)C[C@@H]1C [compound 136]

[-0.07, 0.93, 1.23]

The following molecules each have a reported value; give each one's log10 of EC50.
1. CC(=O)Nc1cccc(-c2ccc3c(c2)[C@H](NC(=O)c2ccc(F)cc2)C[C@H](C)N3C(C)=O)c1 [compound 68]
2. CC(=O)N1c2ccc(-c3ccn(C)n3)cc2[C@H](Nc2ccccc2OC(F)(F)F)C[C@@H]1C [compound 172]
3. CC(=O)N1c2ccc(-c3cc[nH]n3)cc2[C@H](Nc2ccccc2OC(F)(F)F)C[C@@H]1C [compound 171]

1: 1.90; 2: 1.23; 3: 1.49

* * *

Kindly state EC50 for each of the entries shown.
# assay system: BRD4-BD1 (Homo sapiens (Human), UniProt O60885)
# assay text: competitive TR-FRET assay, BET-BD with acetylated peptide ligand
# Type: binding
# experimental context: BRD4-BD1; Table 11 additional modifications; read-out: 4.1 EC50
# Protocol: Inhibitor potency was determined using a competitive TR-FRET assay as detailed herein, measuring interaction of the respective BET-BD with an acetylated peptide ligand (Table 2).
Answers are plain numbers, in µM.

>  <molecule>
CC(=O)N1c2ccc(-c3cccc(CN)c3)cc2[C@H](NC(=O)OC(C)C)C[C@@H]1C [compound 88]

>  <recorded measurement>
2.9

$$$$
>  <molecule>
CC(=O)N1c2ccc(-c3cccc(CCO)c3)cc2[C@H](NC(=O)OC(C)C)C[C@@H]1C [compound 89]

>  <recorded measurement>
1.4

$$$$
>  <molecule>
CC(=O)N1c2ccc(-c3cccc(NC(=O)C4CCCCC4)c3)cc2[C@H](NC(=O)OC(C)C)C[C@@H]1C [compound 99]

>  <recorded measurement>
1

$$$$
>  <molecule>
CCOC(=O)c1ccc(-c2ccc3c(c2)[C@H](NC(=O)OC(C)C)C[C@H](C)N3C(C)=O)o1 [compound 83]

>  <recorded measurement>
6

$$$$
>  <molecule>
CC(=O)Nc1cccc(-c2ccc3c(c2)[C@H](Nc2ccc(-c4nnco4)cc2)C[C@H](C)N3C(C)=O)c1 [compound 34]

>  <recorded measurement>
5.1

$$$$
>  <molecule>
CC(=O)Nc1cccc(-c2ccc3c(c2)[C@H](NC2CCOCC2)C[C@H](C)N3C(C)=O)c1 [compound 36]

>  <recorded measurement>
2.4

$$$$

Give EC50 for each of the items listed below.
1. COc1cc(F)ccc1N[C@@H]1C[C@H](C)N(C(C)=O)c2ccc(-c3ccn(C)n3)cc21 [compound 173]
2. CC(=O)N1c2ccc(-c3cccc(NC(=O)Cc4ccccc4)c3)cc2[C@H](NC(=O)OC(C)C)C[C@@H]1C [compound 110]
3. CC(=O)Nc1cccc(-c2ccc3c(c2)[C@H](NCc2ccccc2)C[C@H](C)N3C(C)=O)c1 [compound 63]
4. CC(=O)Nc1cccc(-c2ccc3c(c2)[C@H](Nc2ccc(N(C)C(C)=O)cc2)C[C@H](C)N3C(C)=O)c1 [compound 11]
5. COC(=O)c1cccc(N[C@@H]2C[C@H](C)N(C(C)=O)c3ccc(-c4cccc(NC(C)=O)c4)cc32)c1 [compound 7]
6. CC(=O)N1c2ccc(-c3cccc(NC(=O)OC(C)(C)C)c3)cc2[C@H](Nc2ccc(Cl)cc2)C[C@@H]1C [compound 134]

1: 3.8; 2: 1.1; 3: 13; 4: 3.4; 5: 4.8; 6: 21
